Reference for the values: patent US11192900B2

IC50 by entry:
ASSAYED SYSTEM: BRD4-2 (Homo sapiens (Human))
EXPERIMENTAL PROTOCOL: Bromodomain and Extraterminal Domain (BET) Binding Assay
CONDITION: Table 3; read-out: BRD4-2 IC50
Lab book: enter the figure in nM, no units written.

C=CS(=O)(=O)Nc1ccc(Oc2ccc(F)cc2)c(-c2cc(NC)c(=O)n(C)c2)c1 ... 24

Return IC50 (reported value) for this molecule: C=CC(=O)Nc1ccc(Oc2ccc(C)cc2)c(-c2cc(NC)c(=O)n(C)c2)c1
120

Return IC50 (reported value) for this molecule: C#CC(=O)Nc1ccc(Oc2ccc(F)cc2F)c(-c2cc(NC)c(=O)n(C)c2)c1
117

Return IC50 (reported value) for this molecule: C=CS(=O)(=O)Nc1ccc(Oc2ccc(F)cc2F)c(-c2c[nH]c(=O)c(NC)c2)c1
3850

----------
Tested on: THP-1
EXPERIMENTAL PROTOCOL: Cell viability assay (XTT)
Type: cell-based
CONDITION: Homo sapiens; THP-1, XTT, up to 72 hr
RECORDED ENDPOINT: IC50 (nM)
Lab book: enter the figure in nM, no units written.

Return IC50 (reported value) for this compound: C=CS(=O)(=O)Nc1ccc(Oc2ccc(F)cc2F)c(-c2cc(NC)c(=O)n(C)c2)c1
250

----------
Tested on: MV-4-11 human acute myeloid leukemia cell line
EXPERIMENTAL PROTOCOL: Second cell viability assay in MV-4-11 (Cell Titer-Glo)
Type: cell-based
CONDITION: Homo sapiens; MV4-11, Cell Titer-Glo, 72 hrs; read-out: Cell Viability IC50 in MV4-11 cells
RECORDED ENDPOINT: pIC50
The scale used: pIC50 is minus the common logarithm of the concentration in molar units.

CC(=O)Nc1ccc(Oc2c(C)cc(F)cc2C)c(-n2cc(C)c(=O)c3ccccc32)c1 ... 5.61
C=CC(=O)Nc1ccc(Oc2c(C)cccc2C)c(-c2cc(NC)c(=O)n(C)c2)c1 ... 7.13

Return pIC50 (reported value) for this compound: C/C=C/S(=O)(=O)Nc1ccc(Oc2ccc(F)cc2F)c(-c2cn(C)c(=O)c3ccccc23)c1
6.56

Return pIC50 (reported value) for this compound: C=CC(=O)Nc1ccc(Oc2c(C)cc(F)cc2C)c(-c2cn(C)c(=O)c3cc(C(=O)NCC)sc23)c1
7.09

Return pIC50 (reported value) for this compound: C=CS(=O)(=O)Nc1ccc(Oc2ccc(F)cc2F)c(-c2cc(NC)c(=O)n(C)c2)c1
7.55

Return pIC50 (reported value) for this compound: CCS(=O)(=O)Nc1ccc(Oc2ccc(F)cc2F)c(-n2cc(C)c(=O)c3ccccc32)c1
7.42

Return pIC50 (reported value) for this compound: CCS(=O)(=O)Nc1ccc(Oc2c(C)cc(F)cc2C)c(-n2cc(C)c(=O)c3ccccc32)c1
6.28

Return pIC50 (reported value) for this compound: C=CC(=O)Nc1ccc(Oc2c(F)cccc2F)c(-c2cn(C)c(=O)c3ccccc23)c1
6.60

Return pIC50 (reported value) for this compound: C=CS(=O)(=O)Nc1ccc(Oc2ccc(F)cc2F)c(-c2cn(C)c(=O)cc2OC)c1
6.94

Return pIC50 (reported value) for this compound: C#CC(=O)Nc1ccc(Oc2c(C)cccc2C)c(-c2cn(C)c(=O)c3cc(C(=O)NCC)sc23)c1
7.35

----------
ASSAYED SYSTEM: BRD4-2 (Homo sapiens (Human), UniProt O60885)
EXPERIMENTAL PROTOCOL: Bromodomain and Extraterminal Domain (BET) Binding Assay
CONDITION: Table 3; read-out: BRD4-2 IC50
RECORDED ENDPOINT: IC50 (nM)
Lab book: enter the figure in nM, no units written.

Answered examples (2):
C=CC(=O)Nc1ccc(Nc2ccc(C)cc2)c(-c2cn(C)c(=O)c3ccccc23)c1 [Compound 309] ... 2120
C=CC(=O)Nc1ccc(Oc2ccc(F)cc2)c(-c2cn(C)c(=O)c3ccccc23)c1 [Compound 26] ... 281

Next item in the queue.
Return IC50 (reported value) for this molecule: CC#CC(=O)Nc1ccc(Oc2ccc(F)cc2F)c(-c2cn(C)c(=O)c3ccccc23)c1 [Compound 393]
261

----------
ASSAYED SYSTEM: BRD2-1 (Homo sapiens (Human), UniProt P25440)
Sequence (P25440 74-180): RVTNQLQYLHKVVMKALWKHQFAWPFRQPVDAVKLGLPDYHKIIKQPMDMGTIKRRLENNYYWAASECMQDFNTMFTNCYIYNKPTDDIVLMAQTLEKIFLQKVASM
EXPERIMENTAL PROTOCOL: Bromodomain and Extraterminal Domain (BET) Binding Assay
RECORDED ENDPOINT: IC50
Please answer in the form of a number followed by its unit of measurement.

Return IC50 (reported value) for this compound: C=CS(=O)(=O)Nc1ccc(Oc2ccc(F)cc2F)c(-c2cc(NC)c(=O)n(C)c2)c1
16 nM

----------
IC50 by entry:
ASSAYED SYSTEM: BRD4-1 (Homo sapiens (Human), UniProt O60885)
EXPERIMENTAL PROTOCOL: Bromodomain and Extraterminal Domain (BET) Binding Assay
CONDITION: Table 3; read-out: BRD4-1 IC50
Lab book: enter the figure in nM, no units written.

Answered examples (2):
C=CS(=O)(=O)Nc1ccc(Oc2ccc(F)cc2F)c(-c2cc(N(C)C)c(=O)n(C)c2)c1 ... 6
C=CC(=O)Nc1ccc(Oc2c(C)cc(F)cc2C)c(-c2cn(C)c(=O)c3cc(C(=O)NCC)sc23)c1 ... 2850

Return IC50 (reported value) for this compound: C=CC(=O)Nc1ccc(Oc2ccc(OC)cc2)c(-c2cn(C)c(=O)c3ccccc23)c1
479

Return IC50 (reported value) for this compound: C/C=C/C(=O)Nc1ccc(Oc2c(C)cccc2C)c(-c2cn(C)c(=O)c3cc(C(=O)NCC)sc23)c1
7370

Return IC50 (reported value) for this compound: C=CC(=O)Nc1ccc(Oc2ccc(F)cc2)c(-c2cc(NC)c(=O)n(C)c2)c1
104

Return IC50 (reported value) for this compound: C=CC(=O)Nc1ccc(Oc2c(C)cccc2C)c(-c2cn(C)c(=O)c3sc(C(=O)NCC)cc23)c1
12500

Return IC50 (reported value) for this compound: C=CC(=O)Nc1ccc(Oc2c(C)cc(F)cc2C)c(-c2cn(C)c(=O)c3ccccc23)c1
15900

----------
System: KG-1a
EXPERIMENTAL PROTOCOL: Cell viability in AML and DLBCL cell lines (Cell Titer-Glo)
Assay type: cell-based
CONDITION: Homo sapiens, 72 hr
Protocol: A panel of AML and DLBCL cell lines was profiled for effects of compound 3 on cell viability. Cells were seeded at a count of 3000-8000 cells per well/40 μl in a 384-well plate and incubated at 37° C., 5% CO2 overnight. […] Contents were mixed, the plate was incubated for 10 min at room temperature and luminescence was measured. The IC50 value of each test compound was calculated with XLFit curve fitting software.
RECORDED ENDPOINT: IC50 (nM)
Lab book: enter the figure in nM, no units written.

Return IC50 (reported value) for this compound: C=CS(=O)(=O)Nc1ccc(Oc2ccc(F)cc2F)c(-c2cc(NC)c(=O)n(C)c2)c1 [Compound 3]
285

----------
ASSAYED SYSTEM: BRD4-1 (Homo sapiens (Human), UniProt O60885)
EXPERIMENTAL PROTOCOL: Bromodomain and Extraterminal Domain (BET) Binding Assay
CONDITION: Table 3; read-out: BRD4-1 IC50
Threshold check on IC50: strictly below 2000 nM is MET; on or above 2000 nM is NOT MET.

Consider the worked cases shown below.
C=CC(=O)Nc1ccc(Oc2c(C)cccc2C)c(-c2cn(C)c(=O)cc2OC(C)C)c1 [Compound 589] ... NOT MET
C=CC(=O)Nc1ccc(Oc2c(C)cccc2C)c(-c2cn(C)c(=O)c3cc(C(=O)NCC)sc23)c1 [Compound 412] ... MET
CC(=O)Nc1ccc(Oc2c(C)cc(F)cc2C)c(-n2cc(C)c(=O)c3ccccc32)c1 [Compound 710] ... NOT MET
CCS(=O)(=O)Nc1ccc(Oc2ccc(F)cc2F)c(-n2cc(Cl)c(=O)c3ccccc32)c1 [Compound 661] ... MET
C=CC(=O)Nc1ccc(Oc2c(C)cc(F)cc2C)c(-c2cc(NC)c(=O)n(C)c2)c1 [Compound 167] ... MET
C=CC(=O)Nc1ccc(Nc2c(C)cccc2C)c(-c2cn(C)c(=O)c3ccccc23)c1 [Compound 313] ... NOT MET

Now look at this one.
Determine if C#CC(=O)Nc1ccc(Oc2ccc(F)cc2F)c(-c2cc(NC)c(=O)n(C)c2)c1 [Compound 2] shows IC50 strictly lower than 2000 nM.
MET

----------
ASSAYED SYSTEM: BRD4-2 (Homo sapiens (Human), UniProt O60885)
EXPERIMENTAL PROTOCOL: Bromodomain and Extraterminal Domain (BET) Binding Assay
CONDITION: Table 3; read-out: BRD4-2 IC50
Threshold check on IC50: strictly below 20 nM is Fulfilled; on or above 20 nM is Not fulfilled.

Consider the worked cases shown below.
C/C=C/C(=O)Nc1ccc(Oc2c(C)cccc2C)c(-c2cn(C)c(=O)c3cc(C(=O)NCC)sc23)c1 [Compound 611] ... Fulfilled
C=CS(=O)(=O)Nc1ccc(Oc2ccc(F)cc2F)c(-c2cc(N(C)C)c(=O)n(C)c2)c1 [Compound 16] ... Not fulfilled
C=CC(=O)Nc1ccc(Oc2c(C)cccc2C)c(-c2cn(C)c(=O)c3cc(C(=O)NCC)sc23)c1 [Compound 412] ... Fulfilled
C=CS(=O)(=O)Nc1ccc(Oc2ccc(OC)cc2)c(-c2cc(NC)c(=O)n(C)c2)c1 [Compound 8] ... Fulfilled
C=CC(=O)Nc1ccc(Oc2ccc(F)cc2F)c(-n2cc(C)c(=O)c3ccccc32)c1 [Compound 613] ... Not fulfilled

Determine if C=CS(=O)(=O)Nc1ccc(Oc2ccc(F)cc2F)c(-c2cn(C)c(=O)c3c2CCNC3)c1 [Compound 14] shows IC50 strictly lower than 20 nM.
Not fulfilled
